Numbers sourced from patent US20160297884A1.

- TARGET: T1, Human BCMA (human, UniProt Q02223 1-54, limits assumed)
- T1 construct: Soluble analyte in SPR; construct not described; also called huBCMA; B-cell maturation antigen
- T1 sequence (looked up): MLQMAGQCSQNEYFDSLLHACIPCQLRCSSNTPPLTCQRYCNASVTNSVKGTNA
- PROTOCOL DESCRIPTION: SPR, IgG immobilised, 37 C
- Experimental: All experiments were performed on a Bio-Rad Proteon XPR36 surface Plasmon resonance biosensor (Bio-Rad, Hercules, Calif.). […] The analysis temperature for the immobilization was 25° C. and the running buffer was HBS-T+(10 mM HEPES, 150 mM NaCl, 0.05% Tween-20, pH 7.4). […] The analysis temperature for the BCMA binding analysis was 37° C. or 25° C. in a running buffer of HBS-T+, supplemented with 1 mg/mL BSA. […] Immediately after the 50 nM BCMA injection, dissociation was monitored for 2 hours. […]
Overview of recorded kon for various binders

{"BINDER": "L3.PY/L1.FF/P6E01 (antibody, V domains shown, IgG) VH: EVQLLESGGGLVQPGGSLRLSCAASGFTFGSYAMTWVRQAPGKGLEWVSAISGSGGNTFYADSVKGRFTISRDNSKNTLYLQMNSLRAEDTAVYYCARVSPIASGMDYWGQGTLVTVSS VL: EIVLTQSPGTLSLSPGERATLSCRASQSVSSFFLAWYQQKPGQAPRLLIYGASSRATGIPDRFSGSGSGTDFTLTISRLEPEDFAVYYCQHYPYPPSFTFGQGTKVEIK", "UNIT OF MEASUREMENT": "M⁻¹ s⁻¹", "kon": "2.39e+06"}
{"BINDER": "L3.PY/L1.FF/H2.QL (antibody, V domains shown, IgG) VH: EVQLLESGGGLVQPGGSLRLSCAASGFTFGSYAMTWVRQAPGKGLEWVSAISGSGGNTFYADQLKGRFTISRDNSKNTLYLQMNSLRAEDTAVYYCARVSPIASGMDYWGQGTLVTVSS VL: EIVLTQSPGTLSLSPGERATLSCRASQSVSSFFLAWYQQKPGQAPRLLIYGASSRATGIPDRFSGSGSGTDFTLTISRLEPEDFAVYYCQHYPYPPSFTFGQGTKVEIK", "UNIT OF MEASUREMENT": "M⁻¹ s⁻¹", "kon": "3.48e+06"}
{"BINDER": "L3.PY/L3.KF/H3.AE (antibody, V domains shown, IgG) VH: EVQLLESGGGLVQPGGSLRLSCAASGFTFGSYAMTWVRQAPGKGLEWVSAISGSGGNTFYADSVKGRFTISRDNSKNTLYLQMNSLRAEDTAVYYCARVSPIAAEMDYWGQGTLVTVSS VL: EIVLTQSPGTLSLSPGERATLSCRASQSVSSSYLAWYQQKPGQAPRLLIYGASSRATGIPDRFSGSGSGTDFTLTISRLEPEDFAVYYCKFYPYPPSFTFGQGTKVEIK", "UNIT OF MEASUREMENT": "M⁻¹ s⁻¹", "kon": "3.07e+06"}
{"BINDER": "L3.PY/L1.PH/H3.AE (antibody, V domains shown, IgG) VH: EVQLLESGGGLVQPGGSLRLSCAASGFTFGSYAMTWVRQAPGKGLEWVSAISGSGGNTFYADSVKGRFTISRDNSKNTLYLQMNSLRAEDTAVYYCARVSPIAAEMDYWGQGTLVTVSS VL: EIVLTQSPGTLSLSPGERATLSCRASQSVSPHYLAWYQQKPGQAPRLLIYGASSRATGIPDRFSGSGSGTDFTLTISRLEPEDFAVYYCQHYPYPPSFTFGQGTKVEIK", "UNIT OF MEASUREMENT": "M⁻¹ s⁻¹", "kon": "3.68e+06"}
{"BINDER": "L3.PY/L1.PS/H3.AE (antibody, V domains shown, IgG) VH: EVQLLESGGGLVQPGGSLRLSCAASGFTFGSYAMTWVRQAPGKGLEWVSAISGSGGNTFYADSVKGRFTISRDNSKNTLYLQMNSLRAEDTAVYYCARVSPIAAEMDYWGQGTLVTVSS VL: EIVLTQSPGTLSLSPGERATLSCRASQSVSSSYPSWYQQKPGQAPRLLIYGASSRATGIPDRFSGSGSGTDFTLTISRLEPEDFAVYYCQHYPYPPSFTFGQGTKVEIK", "UNIT OF MEASUREMENT": "M⁻¹ s⁻¹", "kon": "3.14e+06"}
{"BINDER": "L3.PY/L3.KF/H2.DY (antibody, V domains shown, IgG) VH: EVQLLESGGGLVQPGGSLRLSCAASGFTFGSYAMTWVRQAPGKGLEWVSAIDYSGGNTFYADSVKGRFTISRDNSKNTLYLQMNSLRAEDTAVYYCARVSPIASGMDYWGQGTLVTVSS VL: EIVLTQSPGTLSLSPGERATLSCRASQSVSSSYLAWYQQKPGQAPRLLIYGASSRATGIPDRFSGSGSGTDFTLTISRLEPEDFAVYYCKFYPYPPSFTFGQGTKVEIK", "UNIT OF MEASUREMENT": "M⁻¹ s⁻¹", "kon": "2.74e+06"}
{"BINDER": "L3.PY/P6E01 (antibody, V domains shown, IgG) VH: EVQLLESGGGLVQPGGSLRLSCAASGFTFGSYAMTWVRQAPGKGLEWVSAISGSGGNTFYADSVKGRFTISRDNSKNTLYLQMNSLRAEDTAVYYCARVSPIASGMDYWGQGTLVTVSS VL: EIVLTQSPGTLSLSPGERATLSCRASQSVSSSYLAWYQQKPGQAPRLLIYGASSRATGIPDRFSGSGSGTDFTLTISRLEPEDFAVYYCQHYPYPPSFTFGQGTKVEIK", "UNIT OF MEASUREMENT": "M⁻¹ s⁻¹", "kon": "2.65e+06"}
{"BINDER": "L3.PY/L1.AH/H2.QL (antibody, V domains shown, IgG) VH: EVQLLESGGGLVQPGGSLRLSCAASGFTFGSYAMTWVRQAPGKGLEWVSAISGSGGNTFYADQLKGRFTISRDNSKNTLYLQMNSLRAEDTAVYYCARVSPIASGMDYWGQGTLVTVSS VL: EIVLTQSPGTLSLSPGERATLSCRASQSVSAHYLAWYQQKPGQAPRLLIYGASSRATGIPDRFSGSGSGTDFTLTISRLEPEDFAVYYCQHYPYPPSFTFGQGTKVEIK", "UNIT OF MEASUREMENT": "M⁻¹ s⁻¹", "kon": "3.04e+06"}
{"BINDER": "L3.PY/H2.DY (antibody, V domains shown, IgG) VH: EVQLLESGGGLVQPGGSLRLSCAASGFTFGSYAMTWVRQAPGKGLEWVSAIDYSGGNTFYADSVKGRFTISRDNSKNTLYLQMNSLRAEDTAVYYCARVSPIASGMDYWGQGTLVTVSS VL: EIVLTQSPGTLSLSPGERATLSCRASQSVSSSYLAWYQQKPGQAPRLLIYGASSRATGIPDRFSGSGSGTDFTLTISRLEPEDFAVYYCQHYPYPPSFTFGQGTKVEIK", "UNIT OF MEASUREMENT": "M⁻¹ s⁻¹", "kon": "2.6e+06"}
{"BINDER": "L3.PY/L1.PS/H2.LT (antibody, V domains shown, IgG) VH: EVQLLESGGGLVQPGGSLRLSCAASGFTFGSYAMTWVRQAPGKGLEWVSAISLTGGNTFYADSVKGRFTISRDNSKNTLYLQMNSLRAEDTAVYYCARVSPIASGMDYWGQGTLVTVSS VL: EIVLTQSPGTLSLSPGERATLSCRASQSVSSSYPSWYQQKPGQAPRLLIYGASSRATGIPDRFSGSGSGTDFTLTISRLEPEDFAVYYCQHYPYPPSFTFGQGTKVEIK", "UNIT OF MEASUREMENT": "M⁻¹ s⁻¹", "kon": "3.4e+06"}
